Values from PubChem BioAssay AID463204

- Test system: S. cerevisiae Mot1-301 ts growth rescue, BacTiter-Glo ATP luminescence
- protocolNotes: restored Mot1-301 yeast growth at 38.5C – whole organism, S. cerevisiae, Mot1-301 ts mutant, luminescence, dose retest, SUMOylation pathway inhibitor project, confirmation (AID 463204);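 note: growth at restrictive 38.5 degrees C of Mot1-301 OY566 strain; actives raise luminescence by restoring growth of the ts mutant at high temperature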
Active and inactive are the calls of the source.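 Rule for the calls: active = AC50 no more than ten times the top concentration tested, that is within one log above it; inconclusive = flat curve fit with activity between 30% and 70%, or invalid poor fit; inactive = AC50 beyond ten times the top tested dose.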
Reported AC50 values follow for various compounds

compound | targetOrSystem | metric | dataValue
Cc1c(C(=O)NC(=S)Nc2ccccc2N2CCCC2)cccc1[N+](=O)[O-] | S. cerevisiae Mot1-301 ts growth rescue, BacTiter-Glo ATP luminescence | AC50 | > 42 µM (inactive)

According to the records, this compound NC1=NC2(CCCC2)N=C(Nc2ccccc2)N1 displays AC50 of > 42 µM (inactive)

According to the records, this compound O=C(CSc1nc(-c2ccccc2)nc2ccc(F)cc12)Nc1cccc(C(=O)O)c1 displays AC50 of > 42 µM (inactive)

According to the records, this compound CC(C)c1ccc(C2C(C(=O)c3ccco3)=C(O)C(=O)N2CCN2CCOCC2)cc1 (stereo not drawn) displays AC50 of > 42 µM (inactive)
